- Tested on: mice
- procedureSummary: toxicity tests on mice
- Format: in vivo
- conditionSet: intraperitoneal administration, single treatment, one week observation
measureName: LD0 (mg/kg)
Give the quantity in mg/kg, number only.

compound="CCOC(=O)C(C#N)N=Nc1cccc(Cl)c1 (stereo not shown)" readoutvalue=200
compound="CCCCOC(=O)C(C#N)N=Nc1cccc([N+](=O)[O-])c1 (stereo not shown)" readoutvalue=400
compound="CC(C)OC(=O)C(C#N)N=Nc1ccc(Cl)cc1 (stereo not shown)" readoutvalue=400

LD0 reading for CCCCOC(=O)C(C#N)N=Nc1ccc(Cl)cc1 (stereo not shown) : 500

Form field LD0, entry CCCOC(=O)C(C#N)N=Nc1cccc(Cl)c1 (stereo not shown) : 300

Entry under test: CCCCOC(=O)C(C#N)N=Nc1cccc(Cl)c1 (stereo not shown) . Its LD0 was 500

Reported LD0 of CCCOC(=O)C(C#N)N=Nc1ccc(Cl)cc1 (stereo not shown) : 400

So, CCOC(=O)C(C#N)N=Nc1ccc(Cl)cc1 (stereo not shown) ? Its LD0 was 200

Please fill in: LD0 reported for CCCCOC(=O)C(C#N)N=Nc1ccc([N+](=O)[O-])cc1 (stereo not shown) = 400

Lab note: CC(C)OC(=O)C(C#N)N=Nc1cccc(Cl)c1 (stereo not shown) gave LD0 of 300
